Consider the following AC50 values measured on UniProt P35367.
Sequence (P35367 whole entry): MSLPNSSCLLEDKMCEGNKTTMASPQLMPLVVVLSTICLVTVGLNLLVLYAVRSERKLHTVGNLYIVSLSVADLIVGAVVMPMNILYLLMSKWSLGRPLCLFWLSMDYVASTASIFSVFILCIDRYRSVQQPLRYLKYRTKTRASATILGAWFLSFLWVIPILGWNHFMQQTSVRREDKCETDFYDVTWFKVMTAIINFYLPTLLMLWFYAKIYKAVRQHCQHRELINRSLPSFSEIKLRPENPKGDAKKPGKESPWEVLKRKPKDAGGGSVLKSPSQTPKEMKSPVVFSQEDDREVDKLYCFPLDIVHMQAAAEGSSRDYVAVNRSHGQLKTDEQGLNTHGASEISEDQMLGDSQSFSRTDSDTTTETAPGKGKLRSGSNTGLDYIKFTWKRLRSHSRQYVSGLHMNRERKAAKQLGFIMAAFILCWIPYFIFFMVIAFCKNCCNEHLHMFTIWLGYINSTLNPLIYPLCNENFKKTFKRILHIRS

CC1(C)S[C@@H]2[C@H](NC(=O)[C@H](N)c3ccccc3)C(=O)N2[C@H]1C(=O)OCOC(=O)[C@@H]1N2C(=O)C[C@H]2S(=O)(=O)C1(C)C = > 30 µM

Quick one: give me AC50 for each item below, same order please.
1. O=C1CN(/N=C/c2ccc(-c3ccc([N+](=O)[O-])cc3)o2)C(O)=N1
2. Clc1ccc2c(N3CCN(CCCN4CCN(c5ccnc6cc(Cl)ccc56)CC4)CC3)ccnc2c1
3. CCCCC(=O)O[C@]1(C(=O)CO)[C@@H](C)C[C@H]2[C@@H]3CCC4=CC(=O)C=C[C@]4(C)[C@@]3(F)[C@@H](O)C[C@@]21C [BETAMETHASONE VALERATE]
4. CCC(C)C(CC)C(N)=O (stereo unspecified) [VALNOCTAMIDE]
5. C[C@@H](NCCCc1cccc(C(F)(F)F)c1)c1cccc2ccccc12

Ans.
1. > 10 µM
2. > 30 µM
3. > 10 µM
4. > 30 µM
5. 16 µM

Origin of the recorded values: ChEMBL document CHEMBL5291721
